Target: recombinant poly(ADP-ribose) polymerase 1 (PARP1) (Homo sapiens, UniProt P09874)
Sequence (P09874 whole entry): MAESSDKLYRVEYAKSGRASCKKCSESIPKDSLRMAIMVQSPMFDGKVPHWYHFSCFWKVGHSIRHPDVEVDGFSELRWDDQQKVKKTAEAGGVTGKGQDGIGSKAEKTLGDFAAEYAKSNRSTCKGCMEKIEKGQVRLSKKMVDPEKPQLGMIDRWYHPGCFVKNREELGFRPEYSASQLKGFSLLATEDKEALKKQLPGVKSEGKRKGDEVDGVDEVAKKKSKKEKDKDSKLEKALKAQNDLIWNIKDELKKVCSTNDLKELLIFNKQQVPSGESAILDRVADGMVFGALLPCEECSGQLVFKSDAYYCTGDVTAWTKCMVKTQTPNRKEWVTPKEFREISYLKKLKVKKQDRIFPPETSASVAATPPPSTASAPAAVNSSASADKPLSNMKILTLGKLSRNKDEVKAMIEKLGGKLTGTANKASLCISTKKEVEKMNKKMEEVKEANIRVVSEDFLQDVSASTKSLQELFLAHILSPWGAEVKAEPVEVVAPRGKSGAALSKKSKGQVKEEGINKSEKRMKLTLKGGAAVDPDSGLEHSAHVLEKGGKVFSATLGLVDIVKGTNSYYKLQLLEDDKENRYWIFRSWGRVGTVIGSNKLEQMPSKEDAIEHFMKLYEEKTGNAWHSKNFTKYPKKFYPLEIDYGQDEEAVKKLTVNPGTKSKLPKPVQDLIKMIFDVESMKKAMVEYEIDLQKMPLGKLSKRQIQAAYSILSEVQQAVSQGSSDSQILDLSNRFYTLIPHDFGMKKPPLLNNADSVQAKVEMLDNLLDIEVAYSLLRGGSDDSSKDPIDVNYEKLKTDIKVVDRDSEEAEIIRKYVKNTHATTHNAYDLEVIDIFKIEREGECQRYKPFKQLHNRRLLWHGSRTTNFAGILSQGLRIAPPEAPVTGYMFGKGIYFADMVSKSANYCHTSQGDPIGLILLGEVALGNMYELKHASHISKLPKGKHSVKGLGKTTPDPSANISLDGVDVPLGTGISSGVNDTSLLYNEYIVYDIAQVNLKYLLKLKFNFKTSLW
Assay: biochemical
Settings: inhibition of PARP1 enzyme activity, chemiluminescence
Here the recorded IC50 is given for each entry.
Report the value in nM with no unit label.

Solved entries (count: 4):
Molecule: CNC(=O)c1ccc(N2CCN(Cc3cc(F)c4c(c3)[nH]c(=O)c3sccc34)CC2)c(C)n1 [Example 114]
IC50 [nM]: 0.67

Molecule: CNC(=O)c1ccc(N2CCN(Cc3ccc4c(c3)[nH]c(=O)c3cscc34)CC2)c(C)n1 [Example 83]
IC50 [nM]: 1.08

Molecule: CNC(=O)c1ccc(N2CCN(Cc3ccc4c(c3)[nH]c(=O)n3cncc43)CC2)c(C)n1 [Example 30]
IC50 [nM]: 1.54

Molecule: Cc1nc(C(=O)NC2CC2)ccc1N1CCN(Cc2cc(F)c3c(c2)[nH]c(=O)c2ccnn23)CC1 [Example 92]
IC50 [nM]: 1.38

State IC50 on recombinant poly(ADP-ribose) polymerase 1 (PARP1) (Homo sapiens, UniProt P09874). Entry: CNC(=O)c1ccc(N2CCN(Cc3ccc4c([nH]c(=O)c5cc(Cl)nn54)c3F)CC2)c(F)n1 [Example 112]
0.57

State IC50 on recombinant poly(ADP-ribose) polymerase 1 (PARP1) (Homo sapiens, UniProt P09874). Entry: CNC(=O)c1ccc(N2CCN(Cc3ccc4c(c3)[nH]c(=O)c3c(C)c(C)nn34)CC2)c(F)n1 [Example 125]
1.05

====

Biological target: recombinant poly(ADP-ribose) polymerase 1 (PARP1) (Homo sapiens, UniProt P09874)
Test: biochemical
Settings: inhibition of PARP1 enzyme activity, chemiluminescence
# note: exactly 1 nM is not below, so it is F; use T for IC50 strictly under it

Structure Smiles String: O=C(NC1CC1)c1ccc(N2CCN(Cc3ccc4c([nH]c(=O)c5ccnn54)c3F)CC2)c(F)n1
Class Label: F

Structure Smiles String: CNC(=O)c1ccc(N2CCN(Cc3ccc4c(c3)[nH]c(=O)c3c(C)c(C)nn34)CC2)c(C)n1
Class Label: F

Structure Smiles String: CNC(=O)c1ccc(N2CCN(Cc3cc(F)c4c(c3)[nH]c(=O)c3c(Cl)cnn34)CC2)c(C)n1
Class Label: T

Structure Smiles String: CCNC(=O)c1ccc(N2CCN(Cc3ccc4c5c(c(=O)[nH]c4c3)COC5)CC2)c(C)n1
Class Label: F

Structure Smiles String: CNC(=O)c1ccc(N2CCN(Cc3ccc4c(c3)[nH]c(=O)c3ccc(C)n34)CC2)c(C)n1
Class Label: F

Hi there! Is IC50 for O=C(NC1CC1)c1ccc(N2CCN(Cc3cc(F)c4c(c3)[nH]c(=O)c3cccn34)CC2)c(F)n1 below 1 nM, do you know?
F

====

Here the recorded IC50 is given for each entry.
Biological target: recombinant poly(ADP-ribose) polymerase 1 (PARP1) (Homo sapiens, UniProt P09874)
Assay: biochemical
Conditions: inhibition of PARP1 enzyme activity, chemiluminescence
Report the value in nM with no unit label.

Compound: CCNC(=O)c1ccc(N2CCN(Cc3cc(F)c4c(c3)[nH]c(=O)c3ccnn34)CC2)c(C)n1 [Example 91]
IC50, nM: 1.39

Compound: CNC(=O)c1ccc(N2CCN(Cc3ccc4c(c3)[nH]c(=O)c3cncn34)CC2)c(F)n1 [Example 38]
IC50, nM: 0.3

Compound: CNC(=O)c1ccc(N2CCN(Cc3ccc4c(c3)[nH]c(=O)c3ccnn34)CC2)c(Cl)n1 [Example 37]
IC50, nM: 0.47

Compound: CNC(=O)c1ccc(N2CCN(Cc3ccc4c5c(c(=O)[nH]c4c3)COC5)CC2)c(Cl)n1 [Example 3]
IC50, nM: 1.33

Compound: Cc1nc(C(=O)NCO)ccc1N1CCN(Cc2cc(F)c3c(c2)[nH]c(=O)c2ccnn23)CC1 [Example 117]
IC50, nM: 0.91

Now for the compound whose IC50 we want.
Tell us which IC50 value is on record for CNC(=O)c1ccc(N2CCN(Cc3cc(F)c4c(c3)[nH]c(=O)n3ccnc43)CC2)c(Cl)n1 [Example 119]
1.83
